Test system: Escherichia coli TOP10
ASSAY NOTES: shrunken log2 fold change of peptide-encoding DNA abundance (4.5 h post-induction vs induction); higher = less antimicrobial activity (less host growth inhibition)
TEST PARAMETERS: time post-induction: 4.5 h; library: site-saturation at positions 5, 18, 19, 20
sequences and their reported shrunken log2 fold change
Output: the number by itself.

Q: What measured shrunken log2 fold change goes with RRIRTRPPRLPRPRPRPVFPPRP ?
Ans: -0.339

Q: # input sequence: RRIRKRPPRLPRPRPRPGAKPRP ; wanted: its shrunken log2 fold change
Ans: 1.16

Q: Value lookup for shrunken log2 fold change; key = RRIRNRPPRLPRPRPRPCFGPRP
Ans: 0.0347

Q: Given the sequence RRIRSRPPRLPRPRPRPKRRPRP , what is its reported shrunken log2 fold change?
Ans: 0.33

Q: Using the record for RRIRDRPPRLPRPRPRPCIAPRP , report its shrunken log2 fold change.
Ans: 0.0755

Q: Would you kindly share the measured shrunken log2 fold change for RRIRYRPPRLPRPRPRPRLQPRP ?
Ans: 0.196

Q: Entry under review: RRIRARPPRLPRPRPRPFEIPRP . Reported shrunken log2 fold change?
Ans: 0.083

Q: Reported shrunken log2 fold change, sequence RRIRPRPPRLPRPRPRPPPFPRP : ____
Ans: 0.277

Q: What does the record list as shrunken log2 fold change for RRIRRRPPRLPRPRPRPAVCPRP ?
Ans: 0.66

Q: Find the recorded shrunken log2 fold change belonging to RRIRLRPPRLPRPRPRPSYQPRP and report it.
Ans: -0.255

Next:
Q: Recorded shrunken log2 fold change for RRIRERPPRLPRPRPRPDASPRP , please?
Ans: 0.0331

Q: Suppose we examine the sequence RRIRPRPPRLPRPRPRPGARPRP ; what shrunken log2 fold change value has been reported?
Ans: 1.19

Q: Record request: shrunken log2 fold change value, item RRIRPRPPRLPRPRPRPEFEPRP
Ans: -0.0475

Q: shrunken log2 fold change for RRIRERPPRLPRPRPRPASLPRP ?
Ans: 0.0301

Q: Entry RRIRTRPPRLPRPRPRPMYMPRP : reported shrunken log2 fold change = ?
Ans: -0.0921

----------
System: Escherichia coli TOP10
ASSAY NOTES: shrunken log2 fold change of peptide-encoding DNA abundance (4.5 h post-induction vs induction); higher = less antimicrobial activity (less host growth inhibition)
TEST PARAMETERS: time post-induction: 4.5 h; library: site-saturation at positions 5, 18, 19, 20
Quick reference for shrunken log2 fold change among some sequences
I'd appreciate a reply containing only the number, no unit.

Q: Give the reported shrunken log2 fold change for RRIRERPPRLPRPRPRPFPYPRP (system: Escherichia coli TOP10).
Ans: -0.256

Q: Observed shrunken log2 fold change on Escherichia coli TOP10 for RRIRSRPPRLPRPRPRPHTMPRP , please.
Ans: -0.163

Q: API: value(readout= shrunken log2 fold change, system= Escherichia coli TOP10, query= RRIRVRPPRLPRPRPRPFRTPRP )
Ans: -0.0962

Q: API: value(readout=shrunken log2 fold change, system=Escherichia coli TOP10) for record RRIRDRPPRLPRPRPRPVNSPRP
Ans: 0.0226

Q: API: value(readout= shrunken log2 fold change, system= Escherichia coli TOP10, query= RRIRSRPPRLPRPRPRPFYPPRP )
Ans: -0.259

Others:
Q: Escherichia coli TOP10 / shrunken log2 fold change / RRIRDRPPRLPRPRPRPSCMPRP : value?
Ans: 0.0312

Q: Write down the reported shrunken log2 fold change of RRIRYRPPRLPRPRPRPESRPRP , test system: Escherichia coli TOP10.
Ans: -0.12

Q: Any idea what shrunken log2 fold change came out for RRIRGRPPRLPRPRPRPVWNPRP on Escherichia coli TOP10?
Ans: 0.0596

Q: # value lookup — system Escherichia coli TOP10, readout shrunken log2 fold change, item RRIRHRPPRLPRPRPRPQHNPRP
Ans: 0.22

Q: What reported shrunken log2 fold change corresponds to RRIRPRPPRLPRPRPRPIAVPRP on Escherichia coli TOP10?
Ans: -0.0448

Q: Any idea what shrunken log2 fold change came out for RRIRIRPPRLPRPRPRPDKLPRP on Escherichia coli TOP10?
Ans: -0.275

Q: Which shrunken log2 fold change is reported with Escherichia coli TOP10 for this entry: RRIRKRPPRLPRPRPRPLDNPRP ?
Ans: 0.0829

Q: Give shrunken log2 fold change (Escherichia coli TOP10) of the following sequence: RRIRNRPPRLPRPRPRPDEYPRP
Ans: 0.00318

Q: Record lookup: for Escherichia coli TOP10, what shrunken log2 fold change belongs to RRIRCRPPRLPRPRPRPKHNPRP ?
Ans: -0.325

Q: Please provide the recorded shrunken log2 fold change for RRIRARPPRLPRPRPRPDGLPRP , tested on Escherichia coli TOP10.
Ans: 0.292

Q: // lookup shrunken log2 fold change | system=Escherichia coli TOP10 | key= RRIRQRPPRLPRPRPRPSQVPRP
Ans: -0.23

Q: Query shrunken log2 fold change on Escherichia coli TOP10 for RRIRCRPPRLPRPRPRPKEAPRP
Ans: 0.085

Q: Test system Escherichia coli TOP10; read-out shrunken log2 fold change; what value for RRIRDRPPRLPRPRPRPPHMPRP ?
Ans: 1.51

Q: API: value(readout= shrunken log2 fold change, system= Escherichia coli TOP10, query= RRIRERPPRLPRPRPRPQNRPRP )
Ans: -0.281

Q: Param readout = shrunken log2 fold change; param system = Escherichia coli TOP10; param query = RRIRYRPPRLPRPRPRPRRMPRP ; response: value
Ans: -0.0427

----------
Test system: Escherichia coli TOP10
ASSAY NOTES: shrunken log2 fold change of peptide-encoding DNA abundance (4.5 h post-induction vs induction); higher = less antimicrobial activity (less host growth inhibition)
TEST PARAMETERS: time post-induction: 4.5 h; library: site-saturation at positions 5, 18, 19, 20
Recorded shrunken log2 fold change determines the group label, using low (below -0.02), intermediate (-0.02 to below 0.1), high (0.1 or more)

Completed entries (count: 6):
Q: The entry to classify is RRIRWRPPRLPRPRPRPGCLPRP ; which class holds it?
Ans: high

Q: Just checking, what class would you give RRIRFRPPRLPRPRPRPFWVPRP here?
Ans: low

Q: Please let me know in which category the item RRIRRRPPRLPRPRPRPEYEPRP belongs.
Ans: low

Q: For RRIRNRPPRLPRPRPRPPMYPRP , which shrunken log2 fold change bin applies?
Ans: low

Q: Which band does RRIRSRPPRLPRPRPRPCGWPRP fall in?
Ans: high

Q: Note: place this sequence into its band. Item: RRIRARPPRLPRPRPRPADTPRP
Ans: intermediate

Then this sequence:
Q: Each sequence maps to one class by shrunken log2 fold change. Which class for RRIRVRPPRLPRPRPRPINSPRP ?
Ans: low

----------
Test system: Escherichia coli TOP10
ASSAY NOTES: shrunken log2 fold change of peptide-encoding DNA abundance (4.5 h post-induction vs induction); higher = less antimicrobial activity (less host growth inhibition)
TEST PARAMETERS: time post-induction: 4.5 h; library: site-saturation at positions 5, 18, 19, 20
EXPERIMENTAL ENDPOINT: shrunken log2 fold change
Just the number, please, no unit attached.

Illustrative cases are given below, each with its answer.
Q: Look up shrunken log2 fold change with Escherichia coli TOP10 for this sequence: RRIRFRPPRLPRPRPRPMKEPRP
Ans: -0.187

Q: Please tell me: shrunken log2 fold change of RRIRMRPPRLPRPRPRPPATPRP , system Escherichia coli TOP10?
Ans: 2.56

Q: I'm curious: which shrunken log2 fold change was measured for RRIRRRPPRLPRPRPRPRTHPRP tested on Escherichia coli TOP10?
Ans: 0.108

Others:
Q: Find shrunken log2 fold change (Escherichia coli TOP10) for the entry RRIRTRPPRLPRPRPRPKKEPRP
Ans: -0.0512

Q: Could you share what shrunken log2 fold change was measured for RRIRVRPPRLPRPRPRPNKRPRP , tested on Escherichia coli TOP10?
Ans: -0.158

Q: For Escherichia coli TOP10, provide shrunken log2 fold change of RRIRGRPPRLPRPRPRPFTLPRP please.
Ans: -0.109

Q: Recorded shrunken log2 fold change for RRIRYRPPRLPRPRPRPYINPRP with Escherichia coli TOP10, please?
Ans: -1.69

Q: Request: shrunken log2 fold change, test system Escherichia coli TOP10, entry RRIRDRPPRLPRPRPRPSWNPRP;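 further: peptides expressed intracellularly from a pBAD plasmid library in pooled LB shake-flask culture, induced with 0.3% L-arabinose, DNA abundance read by NGS, three biological replicates, DESeq2 with apeglm shrinkage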
Ans: -0.365

Q: What shrunken log2 fold change appears in the records for this sequence with Escherichia coli TOP10? RRIRQRPPRLPRPRPRPLPNPRP
Ans: 0.0261

Q: Notebook: pull reported shrunken log2 fold change for Escherichia coli TOP10, entry RRIRKRPPRLPRPRPRPKMHPRP
Ans: 0.483

Q: What reported shrunken log2 fold change corresponds to RRIRERPPRLPRPRPRPWLPPRP on Escherichia coli TOP10?
Ans: -0.0302

Q: shrunken log2 fold change of RRIRVRPPRLPRPRPRPPRSPRP on Escherichia coli TOP10?
Ans: 0.37
